Hey, just so you know, these numbers are from patent US20080275058A1.

- experimental_system: hD3 (Homo sapiens)
- Construct: purchased BioSignal Packard Inc., Montreal, Canada
- Sequence (P35462 whole entry): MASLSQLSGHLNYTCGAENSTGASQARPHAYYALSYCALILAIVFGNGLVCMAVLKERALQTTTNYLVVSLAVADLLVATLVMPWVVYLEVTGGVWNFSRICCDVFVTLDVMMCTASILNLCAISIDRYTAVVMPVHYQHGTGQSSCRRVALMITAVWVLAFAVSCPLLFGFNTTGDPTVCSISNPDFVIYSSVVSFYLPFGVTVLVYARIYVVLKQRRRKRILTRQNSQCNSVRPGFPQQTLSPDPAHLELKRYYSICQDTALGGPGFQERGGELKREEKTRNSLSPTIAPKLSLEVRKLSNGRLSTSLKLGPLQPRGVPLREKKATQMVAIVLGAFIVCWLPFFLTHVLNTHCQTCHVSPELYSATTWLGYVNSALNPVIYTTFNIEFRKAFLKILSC
- assay_protocol: Radioligand binding, dopamine D3 ([3H]spiperone)
- experimental_context: Table 4; [3H]spiperone 1 nM; read-out: Binding affinity, IC50 (nM) D3

compound: COc1ccc(CN2C(=O)C(C)(c3ccc(OC)cc3)C(=O)c3c(N4CCNCC4)cc(Cl)cc32)cc1 (stereo not drawn)
comparative_sign: =
IC50 [nM]: 8950

compound: COc1ccc(C2(C)C(=O)c3c(N4CCNCC4)cc(Cl)cc3N(Cc3ccccc3Br)C2=O)cc1 (stereo not drawn)
comparative_sign: =
IC50 [nM]: 9450

compound: CCN1C(=O)C(C)(c2ccc(OC)cc2)C(=O)c2c(N3CCNCC3)cc(Cl)cc21 (stereo not drawn)
comparative_sign: =
IC50 [nM]: 9410

compound: COc1cccc(C2(C)C(=O)c3c(N4CCNCC4)cc(Cl)cc3N(Cc3ccccc3)C2=O)c1 (stereo not drawn)
comparative_sign: =
IC50 [nM]: 9760

compound: CC1(c2ccc(O)cc2)C(=O)c2c(N3CCNCC3)cc(Cl)cc2N(Cc2cccc(Br)c2)C1=O (stereo not drawn)
comparative_sign: =
IC50 [nM]: 9000

compound: CN1CCN(c2cc(Cl)cc3c2C(=O)C(C)(c2ccccc2)C(=O)N3Cc2ccccc2)CC1 (stereo not drawn)
comparative_sign: =
IC50 [nM]: 678

compound: CC1(c2ccc(O)cc2)C(=O)c2c(N3CCNCC3)cc(Cl)cc2N(Cc2ccc(-c3ccccc3)cc2)C1=O (stereo not drawn)
comparative_sign: =
IC50 [nM]: 9210

compound: CC1(c2ccc(Cl)cc2)C(=O)c2c(N3CCNCC3)cc(Cl)cc2N(Cc2ccccc2)C1=O (stereo not drawn)
comparative_sign: =
IC50 [nM]: 9140

compound: C[C@@]1(c2ccc(O)cc2)C(=O)c2c(N3CCNCC3)cc(Cl)cc2N(Cc2ccccc2)C1=O
comparative_sign: =
IC50 [nM]: 1760

compound: COc1ccc(C2(C)C(=O)c3c(N4CCNCC4)cc(Cl)cc3N(Cc3cccc(Br)c3)C2=O)cc1 (stereo not drawn)
comparative_sign: >
IC50 [nM]: 1000

compound: CC1(c2ccc(I)cc2)C(=O)c2c(N3CCNCC3)cc(Cl)cc2N(Cc2ccccc2)C1=O (stereo not drawn)
comparative_sign: =
IC50 [nM]: 1050

compound: CC1(c2ccc(O)cc2)C(=O)c2c(N3CCNCC3)cc(Cl)cc2N(Cc2ccccc2Br)C1=O (stereo not drawn)
comparative_sign: =
IC50 [nM]: 9610

compound: CC1(c2ccc(O)cc2)C(=O)c2c(N3CCNCC3)cc(Cl)cc2N(Cc2cccnc2)C1=O (stereo not drawn)
comparative_sign: =
IC50 [nM]: 9310

compound: CC1(c2ccc(O)cc2)C(=O)c2c(N3CCNCC3)cc(Cl)cc2N(Cc2cccc([N+](=O)[O-])c2)C1=O (stereo not drawn)
comparative_sign: =
IC50 [nM]: 2330

compound: COc1ccc(C2(C)C(=O)c3c(N4CCNCC4)cc(Cl)cc3N(Cc3ccc4ccccc4n3)C2=O)cc1 (stereo not drawn)
comparative_sign: =
IC50 [nM]: 9840

compound: CN1CCN(c2cc(Cl)cc3c2C(=O)C(C)(c2ccc(O)cc2)C(=O)N3Cc2cccc([N+](=O)[O-])c2)CC1 (stereo not drawn)
comparative_sign: =
IC50 [nM]: 9020

compound: COc1ccc(C2(C)C(=O)c3c(N4CCNCC4)cc(Cl)cc3N(Cc3ccccc3)C2=O)cc1 (racemic)
comparative_sign: =
IC50 [nM]: 345

compound: CC1(c2ccc(O)cc2)C(=O)c2c(N3CCNCC3)cc(Cl)cc2N(Cc2ccc3ccccc3c2)C1=O (stereo not drawn)
comparative_sign: =
IC50 [nM]: 9310

compound: COc1ccc(C2(C)C(=O)c3c(N4CCNCC4)cc(Cl)cc3N(Cc3ccccc3OC)C2=O)cc1 (stereo not drawn)
comparative_sign: =
IC50 [nM]: 9410

compound: CC1(c2ccc(O)cc2)C(=O)c2c(N3CCNCC3)cc(Cl)cc2N(Cc2cccc(N)c2)C1=O (stereo not drawn)
comparative_sign: =
IC50 [nM]: 9120

compound: CCNc1ccc([C@]2(C)C(=O)c3c(N4CCN(C)CC4)cc(Cl)cc3N(Cc3ccccc3)C2=O)cc1 (stereo in doubt)
comparative_sign: =
IC50 [nM]: 981

compound: COc1ccc(C2(C)C(=O)c3c(N4CCN(C)CC4)cc(Cl)cc3N(Cc3ccccc3)C2=O)cc1 (stereo not drawn)
comparative_sign: =
IC50 [nM]: 2280

compound: COc1ccc(C2(C)C(=O)c3c(N4CCNCC4)cc(Cl)cc3N(CC3CCCCC3)C2=O)cc1 (stereo not drawn)
comparative_sign: =
IC50 [nM]: 8990

compound: C[C@]1(c2ccc(O)cc2)C(=O)c2c(N3CCNCC3)cc(Cl)cc2N(Cc2ccccc2)C1=O
comparative_sign: =
IC50 [nM]: 7650

compound: CN1CCN(c2cc(Cl)cc3c2C(=O)C(C)(c2ccc([N+](=O)[O-])cc2)C(=O)N3Cc2ccccc2)CC1 (stereo not drawn)
comparative_sign: =
IC50 [nM]: 360

compound: CCNc1ccc(C2(C)C(=O)c3c(N4CCNCC4)cc(Cl)cc3N(Cc3ccccc3)C2=O)cc1 (stereo not drawn)
comparative_sign: =
IC50 [nM]: 8900

compound: CN1CCN(c2cc(Cl)cc3c2C(=O)C(C)(c2ccc(O)cc2)C(=O)N3Cc2ccccc2)CC1 (stereo not drawn)
comparative_sign: =
IC50 [nM]: 589

compound: CN1CCN(c2cc(Cl)cc3c2C(=O)C(C)(c2ccc(OCc4ccccc4)c(Br)c2)C(=O)N3Cc2ccccc2)CC1 (stereo not drawn)
comparative_sign: =
IC50 [nM]: 153

compound: CC1(c2ccc(N)cc2)C(=O)c2c(N3CCNCC3)cc(Cl)cc2N(Cc2ccccc2)C1=O (stereo not drawn)
comparative_sign: =
IC50 [nM]: 9070

compound: COc1ccc([C@]2(C)C(=O)c3c(N4CCNCC4)cc(Cl)cc3N(Cc3ccccc3)C2=O)cc1
comparative_sign: =
IC50 [nM]: 2580
